assay: Quantitative High-Throughput drug screen in 47 multiple myeloma cell lines against the NCATS MIPE library collection: JIM1_ECACC cell viability assay (AID 1918964); settings: JIM1 myeloma viability, CellTiter-Glo ATP luminescence, 48 h; series mostly up to 45.8 µM
Inconclusive results are not listed. Calls of active or inactive are those of the source. Calls come from the whole dose curve; as a rule, active = well fitted cell-killing curve with a large enough effect; inconclusive = small, poorly fitted or top-dose-only effect, or effect the other way; inactive = no such curve, though single readings can be large or run the other way.
# valid calls are active, inactive; nothing else

Below are worked cases with known answers.
Nc1c2c(nc3ccccc13)CCCC2 = inactive
CC(C)NCC(O)c1ccc(O)c(O)c1 (centres undefined) = active
CC(C)NCC(O)COc1ccc(CCOCC2CC2)cc1 (centres undefined) = inactive

Answer briefly: the call reported for `CN1CCN(C2=Nc3cc(Cl)ccc3Nc3ccccc32)CC1` in this assay.
inactive

* * *

test: qHTS of pediatric cancer cell lines to identify multiple opportunities for drug repurposing: Confirmatory screen for Rh30 cells (AID 1347126); details: Rh30 rhabdomyosarcoma cell viability; series mostly up to 45.9 µM; note: potency is the fitted concentration of half-maximal effect; nearly all actives have a fitted effect of over 55% in size
Results filed as inconclusive are left out. Active and inactive are the calls of the source. The call rests on the fitted dose curve; in most records, active means well fitted cell-killing curve with a large enough effect; inconclusive means small, poorly fitted or top-dose-only effect, or effect the other way; inactive means no such curve, though single readings can be large or run the other way.
QUANTITY KIND: Potency

Fill in Potency for record `O=C(Nc1ccc([N+](=O)[O-])cc1Cl)c1cc(Cl)ccc1O`
2.29 µM (active)

Fill in Potency for record `Clc1ccc2nsnc2c1NC1=NCCN1`
7.37 µM (active)

Fill in Potency for record `CS(=O)(=O)CCNCc1ccc(-c2ccc3ncnc(Nc4ccc(OCc5cccc(F)c5)c(Cl)c4)c3c2)o1`
14.7 µM (active)

* * *

experiment: Cell Viability - LYMP1-003 - Assay at 40 hr (AID 964); settings: LYMP1-003 lymphoblastoid viability; series mostly up to 92.2 µM; note: nearly all actives have a fitted effect of over 60% in size
Inconclusive results are not listed. Activity calls are given as the source filed them. The call rests on the fitted dose curve; in most records, active means well fitted cell-killing curve with a large enough effect; inconclusive means small, poorly fitted or top-dose-only effect; inactive means flat fitted curve, though single readings scatter.
QUANTITY KIND: outcome

NCCS(=O)(=O)O = inactive
COc1ccc(CCN(C)CCCC(C#N)(c2ccc(OC)c(OC)c2)C(C)C)cc1OC (centres undefined) = inactive
Cc1cn([C@H]2C=C[C@@H](CO)O2)c(=O)[nH]c1=O = inactive
COc1ccc2[nH]cc(CCNC(C)=O)c2c1 = inactive

* * *

assay: qHTS Screen of the MIPE 4.0 Collection Against Ewings Sarcoma (EW8) (AID 1259255); details: EW8 Ewing sarcoma viability, CellTiter-Glo, 48 h; series mostly up to 45.8 µM; note: nearly all actives have a fitted effect of over 35% in size
Records with an inconclusive call do not appear. Active and inactive are the calls of the source. Calls follow the shape of the dose curve; as a rule, active = well fitted inhibition curve with a large enough effect; inconclusive = small, poorly fitted or top-dose-only effect; inactive = no such curve, though single readings can be large or run the other way.
# valid calls are active, inactive; nothing else

Below are worked cases with known answers.
CC(C)Cc1ccc(C(C)C(=O)O)cc1 (centres undefined) = inactive
CC1COc2c(N3CCN(C)CC3)c(F)cc3c(=O)c(C(=O)O)cn1c23 (centres undefined) = inactive
COc1cc2nc(N3CCN(C(=O)c4ccco4)CC3)nc(N)c2cc1OC = active
COC(=O)Nc1nc2ccc(C(=O)c3cccs3)cc2[nH]1 = active
Nc1ccn([C@H]2CC[C@@H](CO)O2)c(=O)n1 = inactive
CN(C)CCC=C1c2ccccc2C=Cc2ccccc21 = active
COc1cc2c(c(OC)c1OC)-c1ccc(OC)c(=O)cc1[C@@H](NC(C)=O)CC2 = inactive
NCCCCCC(=O)O = inactive

For the next question, use this molecule.
Answer briefly: the call reported for `N[C@@H](Cc1c[nH]c2ccc(O)cc12)C(=O)O` in this assay.
inactive

* * *

test: qHTS profiling of the MIPE4 collection as inhibitors of Plasmodium falciparum (HB3) proliferation (AID 743347); settings: P. falciparum HB3 in erythrocytes, SYBR Green DNA, 72 h; at 28.5 µM (top of the series) unless noted
Each record's class is read off its growth, % of control using these ranges: low = under 8%, mid = from 8% up to 90%, high = 90% and over

CC12CC3CC(C)(C1)CC(N)(C3)C2 = high

Category of `Cc1cn([C@H]2C[C@H](N=[N+]=[N-])[C@@H](CO)O2)c(=O)[nH]c1=O` :
high

Category of `CC#C[C@]1(O)CC[C@H]2[C@@H]3CCC4=CC(=O)CCC4=C3[C@@H](c3ccc(N(C)C)cc3)C[C@@]21C` :
low

Category of `NS(=O)(=O)c1cc2c(cc1Cl)NCNS2(=O)=O` :
mid

Category of `C[C@](N)(Cc1ccc(O)c(O)c1)C(=O)O` :
mid

Category of `CC1(C)O[C@H]2CC(=O)OC[C@]23[C@H]2CC[C@@]4(C)[C@H](c5ccoc5)OC(=O)[C@H]5O[C@]54[C@]2(C)C(=O)C[C@@H]13` :
high

Category of `Clc1ccccc1C(c1ccccc1)(c1ccccc1)n1ccnc1` :
low

Category of `Nc1nc2c(ncn2COC(CO)CO)c(=O)[nH]1` :
mid

Category of CC(C)NCC(O)COc1ccc(CCOCC2CC2)cc1 (stereo not drawn) :
mid

Category of `O=C1c2c(O)ccc(O)c2C(=O)c2c(NCCNCCO)ccc(NCCNCCO)c21` :
low

Category of `Cn1cnc2c1c(=O)[nH]c(=O)n2C` :
mid

Category of `C[C@H]1c2cccc(O)c2C(O)=C2C(=O)[C@]3(O)C(O)=C(C(N)=O)C(=O)[C@@H](N(C)C)[C@@H]3[C@@H](O)[C@@H]21` :
mid

Category of `Cn1c(=O)c2c(ncn2C)n(C)c1=O` :
high

Category of `CNCCCC12CCC(c3ccccc31)c1ccccc12` :
low

Category of `NCCCCCC(=O)O` :
high

Category of `Cc1cnc(C(=O)NCCc2ccc(S(=O)(=O)NC(=O)NC3CCCCC3)cc2)cn1` :
low
